Data origin, for the record: ChEMBL document CHEMBL1177813

Target: Mu-type opioid receptor (Rattus norvegicus, UniProt P33535)
Sequence (P33535 whole entry): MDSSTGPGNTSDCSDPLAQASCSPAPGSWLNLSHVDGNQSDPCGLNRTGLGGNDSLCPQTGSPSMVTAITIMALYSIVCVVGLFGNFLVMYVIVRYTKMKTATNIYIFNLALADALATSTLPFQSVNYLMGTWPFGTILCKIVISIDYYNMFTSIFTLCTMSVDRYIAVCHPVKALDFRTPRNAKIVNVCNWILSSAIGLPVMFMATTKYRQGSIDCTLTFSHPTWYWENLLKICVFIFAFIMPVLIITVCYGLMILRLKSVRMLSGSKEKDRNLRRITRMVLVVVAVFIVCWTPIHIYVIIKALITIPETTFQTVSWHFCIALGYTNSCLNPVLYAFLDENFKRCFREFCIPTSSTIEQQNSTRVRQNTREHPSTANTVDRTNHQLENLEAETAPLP
Assay: Displacement of [3H]DAMGO from rat mu opioid receptor expressed in mouse HN9.10 cells
Experimental Readout: pIC50
In simple prose, pIC50 is minus the logarithm base ten of a concentration in moles per litre.

Cc1cc(O)cc(C)c1C[C@H](N)C(=O)N1CC(=O)N[C@@H](Cc2cnc[nH]2)C(=O)N[C@H](Cc2ccc3ccccc3c2)C(=O)N[C@@H](CCCNC(=N)N)C(=O)N[C@@H](Cc2c[nH]c3ccccc23)C(=O)N[C@H](C(=O)N[C@@H](CC(=O)O)C(=O)N[C@@H](Cc2ccccc2)C(N)=O)CSSC[C@@H](N)C1=O ... 7.90
CCCC[C@H](NC(=O)[C@H](Cc1c[nH]c2ccccc12)NC(=O)[C@H](CCCN=C(N)N)NC(=O)[C@@H](Cc1ccc2ccccc2c1)NC(=O)[C@H](Cc1cnc[nH]1)NC(=O)[C@H]1Cc2ccccc2CN1C(=O)[C@@H](N)Cc1c(C)cc(O)cc1C)C(=O)N[C@@H](CC(=O)O)C(=O)N[C@@H](Cc1ccccc1)C(N)=O ... 7.40

In: Report pIC50, nothing else, for this compound: CCCC[C@H](NC(=O)[C@H](Cc1c[nH]c2ccccc12)NC(=O)[C@H](CCCNC(=N)N)NC(=O)[C@@H](Cc1ccc2ccccc2c1)NC(=O)[C@H](Cc1cnc[nH]1)NC(=O)[C@H](Cc1ccccc1)NC(=O)CNC(=O)[C@@H](C)NC(=O)[C@@H](N)Cc1c(C)cc(O)cc1C)C(=O)N[C@@H](CC(=O)O)C(=O)N[C@@H](Cc1ccccc1)C(N)=O
Out: 9.60

###

Biological target: Mu-type opioid receptor (Rattus norvegicus, UniProt P33535)
Experiment: Displacement of [3H]DAMGO from rat mu opioid receptor expressed in mouse HN9.10 cells
Experimental Readout: IC50 (nM)
Write the value in nM as a bare number.

Use the examples below as a reference point.
CCCC[C@H](NC(=O)[C@H](Cc1c[nH]c2ccccc12)NC(=O)[C@H](CCCN=C(N)N)NC(=O)[C@@H](Cc1ccc2ccccc2c1)NC(=O)[C@H](Cc1cnc[nH]1)NC(=O)[C@H](Cc1ccccc1)NC(=O)[C@@H](C)NC(=O)[C@@H](N)Cc1c(C)cc(O)cc1C)C(=O)N[C@@H](CC(=O)O)C(=O)N[C@@H](Cc1ccccc1)C(N)=O ... 10
CCCC[C@H](NC(=O)[C@H](Cc1c[nH]c2ccccc12)NC(=O)[C@H](CCCNC(=N)N)NC(=O)[C@@H](Cc1ccc2ccccc2c1)NC(=O)[C@H](Cc1cnc[nH]1)NC(=O)[C@H](Cc1ccccc1)NC(=O)CNC(=O)[C@@H](C)NC(=O)[C@@H](N)Cc1ccc(O)cc1)C(=O)N[C@@H](CC(=O)O)C(=O)N[C@@H](Cc1ccccc1)C(N)=O ... 1.26

In: Report IC50, nothing else, for this molecule: CCCC[C@H](NC(=O)[C@H](Cc1c[nH]c2ccccc12)NC(=O)[C@H](CCCNC(=N)N)NC(=O)[C@@H](Cc1ccccc1)NC(=O)[C@H](Cc1cnc[nH]1)NC(=O)[C@H](Cc1ccccc1)NC(=O)CNC(=O)[C@@H](C)NC(=O)[C@@H](N)Cc1ccc(O)cc1)C(=O)N[C@@H](CC(=O)O)C(=O)N[C@@H](Cc1ccccc1)C(N)=O
Out: 31.6
